- system_tested: HER2 INS YVMA (Homo sapiens, UniProt P04626, INS775YVMA)
- Construct: purchased DPF
- Sequence (P04626 with tags, fused parts or gaps INS775YVMA): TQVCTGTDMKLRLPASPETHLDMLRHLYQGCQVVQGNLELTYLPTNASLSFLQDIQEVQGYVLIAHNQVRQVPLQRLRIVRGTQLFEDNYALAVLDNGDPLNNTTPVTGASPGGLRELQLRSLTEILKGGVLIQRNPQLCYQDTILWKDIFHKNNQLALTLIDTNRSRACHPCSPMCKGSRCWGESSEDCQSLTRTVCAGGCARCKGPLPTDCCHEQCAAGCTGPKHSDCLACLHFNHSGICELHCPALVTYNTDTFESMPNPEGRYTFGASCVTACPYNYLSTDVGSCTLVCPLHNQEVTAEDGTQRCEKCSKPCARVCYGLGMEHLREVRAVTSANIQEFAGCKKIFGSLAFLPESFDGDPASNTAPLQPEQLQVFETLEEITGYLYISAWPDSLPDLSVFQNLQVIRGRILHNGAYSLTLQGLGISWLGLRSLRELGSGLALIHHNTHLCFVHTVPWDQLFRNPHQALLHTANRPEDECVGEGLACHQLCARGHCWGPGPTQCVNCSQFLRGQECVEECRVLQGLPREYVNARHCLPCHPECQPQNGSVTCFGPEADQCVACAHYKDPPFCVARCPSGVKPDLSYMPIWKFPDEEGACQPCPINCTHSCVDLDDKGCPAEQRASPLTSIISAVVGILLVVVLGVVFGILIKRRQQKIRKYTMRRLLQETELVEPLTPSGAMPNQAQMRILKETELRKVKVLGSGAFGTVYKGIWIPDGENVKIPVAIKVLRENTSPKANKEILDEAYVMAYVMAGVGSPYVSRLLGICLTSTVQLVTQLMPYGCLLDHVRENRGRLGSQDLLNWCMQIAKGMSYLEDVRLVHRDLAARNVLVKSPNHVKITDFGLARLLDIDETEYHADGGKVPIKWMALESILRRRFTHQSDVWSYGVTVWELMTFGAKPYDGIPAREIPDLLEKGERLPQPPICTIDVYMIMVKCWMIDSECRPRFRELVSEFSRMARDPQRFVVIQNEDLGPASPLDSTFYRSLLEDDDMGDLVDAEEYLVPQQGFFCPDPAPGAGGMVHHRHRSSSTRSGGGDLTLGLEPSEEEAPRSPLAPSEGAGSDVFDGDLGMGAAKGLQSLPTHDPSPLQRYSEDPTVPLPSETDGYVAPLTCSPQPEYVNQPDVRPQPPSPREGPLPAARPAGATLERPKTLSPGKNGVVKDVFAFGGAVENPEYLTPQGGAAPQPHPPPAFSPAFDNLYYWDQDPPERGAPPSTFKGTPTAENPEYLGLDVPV
- assay_summary: Lance Kinase Activity Assay, HER2 INS YVMA (Her2 Exon 20 INSYVMA Lance)
- Assay type: biochemical
- test_context: biochemical Lance assay

>  <compound>
C=CC(=O)Nc1cc(-c2c(-c3cccc(C(=O)N4CCCCCC4)c3)[nH]c3nccc(Cl)c23)ccc1C [Example 45]

>  <IC50>
> 10000 nM

$$$$
>  <compound>
C=CC(=O)Nc1cc(-c2c(-c3ccc(OCCN4CCCC4)cc3)[nH]c3nccc(Cl)c23)ccc1C [Example 38]

>  <IC50>
≤ 100 nM

$$$$
>  <compound>
C=CS(=O)(=O)Nc1cc(-c2c(-c3ccc(N4CCN(C)CC4)cc3)[nH]c3nccc(Cl)c23)ccc1C [Example 145, 2,2,2-trifluoroacetate]

>  <IC50>
≤ 100 nM

$$$$
>  <compound>
C=CC(=O)Nc1cc(-c2c(-c3ccc(N4CCN(C)CC4)cc3)[nH]c3ncc(C(=O)NC4CCCCC4)cc23)ccc1C [Example 120]

>  <IC50>
≤ 100 nM

$$$$
>  <compound>
C=CC(=O)Nc1cc(-c2c(-c3ccc(N(C)CCN(C)C)cc3)[nH]c3ncc(C(=O)OC(C)C)c(C)c23)ccc1C [Example 204]

>  <IC50>
≤ 100 nM

$$$$
>  <compound>
C=CC(=O)Nc1cc(-c2c(-c3ccc(N4CCN(C(C)C)CC4)cc3)[nH]c3nccc(Cl)c23)ccc1C [Example 41]

>  <IC50>
≤ 100 nM

$$$$
>  <compound>
C=CC(=O)Nc1cc(-c2c(-c3ccc(C4CCN(C)CC4)cc3)[nH]c3nccc(OC)c23)ccc1C [Example 73]

>  <IC50>
≤ 100 nM

$$$$
>  <compound>
C=CC(=O)N1CCc2ccc(-c3c(-c4ccc(N(C)CCN(C)C)cc4)[nH]c4nccc(Cl)c34)cc21 [Example 65]

>  <IC50>
≤ 100 nM

$$$$
>  <compound>
C=CC(=O)Nc1cc(-c2c(-c3cccc(CN4CCN(C(C)=O)CC4)c3)[nH]c3ncc(C(=O)OC(C)C)cc23)ccc1C [Example 186]

>  <IC50>
100 to 500 nM

$$$$
>  <compound>
C=CC(=O)Nc1cc(-c2c(-c3ccc(N4CCN(C)CC4)nc3)[nH]c3ncc(C(=O)OC(C)C)cc23)ccc1C [Example 163]

>  <IC50>
≤ 100 nM

$$$$
>  <compound>
C=CC(=O)Nc1cc(-c2c(-c3ccc(CN(C)C)cc3)[nH]c3nccc(Cl)c23)ccc1C [Example 10]

>  <IC50>
≤ 100 nM

$$$$
>  <compound>
C=CC(=O)Nc1cc(-c2c(-c3ccc(N4CCN(C)CC4)cc3)[nH]c3ncc(CO)cc23)ccc1C [Example 199, 2,2,2-trifluoroacetate]

>  <IC50>
≤ 100 nM

$$$$
>  <compound>
C=CC(=O)Nc1cc(-c2c(-c3ccc(N4CCOCC4)nc3)[nH]c3ncc(C(=O)OC(C)C)cc23)ccc1C [Example 171]

>  <IC50>
1000 to 10000 nM

$$$$
>  <compound>
C=CC(=O)Nc1cc(-c2c(-c3ccc(N4CCN(C)CC4)cc3)[nH]c3ncc(C(=O)NCCc4ccc(F)cc4)cc23)ccc1C [Example 124]

>  <IC50>
100 to 500 nM

$$$$
>  <compound>
C=CC(=O)Nc1cc(-c2c(-c3cccc(CN4CCN(C(C)=O)CC4)c3)[nH]c3ncccc23)ccc1C [Example 81]

>  <IC50>
1000 to 10000 nM

$$$$
>  <compound>
C=CC(=O)Nc1cc(-c2c(-c3cnc(N4CCN(C)CC4)s3)[nH]c3ncc(C(=O)OC(C)C)cc23)ccc1C [Example 169]

>  <IC50>
≤ 100 nM

$$$$
>  <compound>
C=CC(=O)Nc1cc(-c2c(-c3cccc(OCCCN4CCN(CC)CC4)c3)[nH]c3nccc(Cl)c23)ccc1C [Example 25]

>  <IC50>
≤ 100 nM

$$$$
>  <compound>
C=CC(=O)Nc1cc(-c2c(-c3ccc(N4CCN(C)CC4)cc3)[nH]c3ncc(CC(=O)OC)cc23)ccc1C [Example 195]

>  <IC50>
≤ 100 nM

$$$$
>  <compound>
C=CC(=O)N1CCCc2ccc(-c3c(-c4ccc(N5CCN(C)CC5)cc4)[nH]c4nccc(Cl)c34)cc21 [Example 86, 2,2,2-trifluoroacetate]

>  <IC50>
≤ 100 nM

$$$$
>  <compound>
C=CC(=O)Nc1cc(-c2c(-c3ccc(N4CCN(C)CC4)cc3)[nH]c3ncc(C(=O)NCc4nncn4C)cc23)ccc1C [Example 130]

>  <IC50>
100 to 500 nM

$$$$
>  <compound>
C=CC(=O)N1CCOc2ccc(-c3c(-c4ccnc(N5CCN(C)CC5)c4)[nH]c4nccc(Cl)c34)cc21 [Example 98, 2,2,2-trifluoroacetate]

>  <IC50>
≤ 100 nM

$$$$
>  <compound>
C=CC(=O)Nc1cc(-c2c(-c3ccc(S(=O)(=O)N4CCN(C)CC4)cc3)[nH]c3ncc(C(=O)OC(C)C)cc23)ccc1C [Example 167]

>  <IC50>
100 to 500 nM

$$$$
>  <compound>
C=CC(=O)N1CCc2ccc(-c3c(-c4ccc(N5CCN(CC)CC5)cc4)[nH]c4nccc(Cl)c34)cc21 [Example 63]

>  <IC50>
≤ 100 nM

$$$$
>  <compound>
C=CC(=O)Nc1cc(-c2c(-c3ccc(N4CCN(CC)CC4)cc3)[nH]c3ncc(C(=O)OC(C)C)cc23)ccc1C [Example 157]

>  <IC50>
≤ 100 nM

$$$$
>  <compound>
C=CC(=O)Nc1cc(-c2c(-c3ccc(CN(C)C)cc3)[nH]c3ncc(C(=O)OC(C)C)cc23)ccc1C [Example 151]

>  <IC50>
≤ 100 nM

$$$$
>  <compound>
C=CC(=O)N1CCc2ccc(-c3c(-c4ccc(CN(C)C)cc4)[nH]c4nccc(Cl)c34)cc21 [Example 61]

>  <IC50>
≤ 100 nM

$$$$
>  <compound>
C=CC(=O)Nc1cc(-c2c(-c3ccc(N4CCN(C)CC4)cc3)[nH]c3ncc(C(=O)NCc4cccnc4)cc23)ccc1C [Example 128]

>  <IC50>
≤ 100 nM

$$$$
